FYI, the data here is from PubChem BioAssay (EPA / NIEHS).

experiment: ATG_RORE_CIS: Attagene CIS-FACTORIAL HepG2 Assay for human RAR-related Orphan Receptor Element (RORE) (AID 2282959); conditions: HepG2 Attagene cis-factorial RORE reporter, mRNA; actives raise or lower the signal
The source made the active and inactive calls. Rule for the calls: active = hit-call score of the fitted dose curve at least 0.9, where 1 is the maximum; inactive = score below 0.9.
Mark one answer only. Choices: active, inactive

compound	assigned category
FC(F)(F)C(F)(F)C(F)(F)CC1CO1 (stereo unspecified)	inactive

Next, consider the following compound.
Query: For this compound, state the assay outcome: `CCN(CC)c1ccc2c(c1)Oc1cc(N(CC)CC)ccc1C21OC(=O)c2ccccc21`
Reply: inactive

---

assay: ATG_M_32_CIS: Attagene CIS-FACTORIAL HepG2 Assay for M32 Transcription Factor (Internal Marker) (AID 2282949); conditions: HepG2 Attagene cis-factorial M32 reporter, mRNA; actives raise or lower the signal;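 note: background control marker of the multiplexed CIS panel rather than a real target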
Calls of active or inactive are those of the source. The calls were made as follows: active = hit-call score of the fitted dose curve at least 0.9, where 1 is the maximum; inactive = score below 0.9.
Mark one answer only. Choices: T (active), F (inactive)

compound	assigned category
CCCCCCCCn1sc(Cl)c(Cl)c1=O	T
CCCCC(CC)COC(=O)c1ccc(N(C)C)cc1 (centres undefined)	F
O=C1OC(=O)c2ccc3c4c(ccc1c24)C(=O)OC3=O	F

Next, consider the following compound.
Query: For this compound, state the assay outcome: CO[Si](CCCOCC1CO1)(OC)OC (centres undefined)
Reply: F

---

biological target: Transcriptional activator Myb (Homo sapiens); assay: ATG_Myb_CIS: Attagene CIS-FACTORIAL HepG2 Assay for human Myeloblastosis (Myb) Proto-Oncogene Transcription Factor (AID 2282986); settings: HepG2 Attagene CIS-FACTORIAL Myb reporter transcription; actives raise or lower the signal
The source made the active and inactive calls. Rule for the calls: active = hit-call score of the fitted dose curve at least 0.9, where 1 is the maximum; inactive = score below 0.9.
Mark one answer only. Choices: Y = active, N = inactive

Would you please look over these solved cases?
smiles	assigned category
Cc1cc(O)c(C(C)(C)C)cc1C(C)(C)C	N
Cc1ccc(O)cn1	N

Query: For this compound, state the assay outcome: `CCCCCCCCCCCC(=O)Cl`
Reply: N

Query: For this compound, state the assay outcome: `Oc1ccc(C2(c3ccc(O)c(C4CCCCC4)c3)CCCCC2)cc1C1CCCCC1`
Reply: Y

Query: For this compound, state the assay outcome: `C=CC(=O)OCC(F)(F)C(F)(F)C(F)(F)C(F)(F)C(F)(F)C(F)(F)C(F)(F)C(F)F`
Reply: N

---

molecular target: Estrogen receptor (Homo sapiens); test: OT_ERa_GFPERaERE_0120: Odyssey Thera (OT) 2-hour HeLa Transcription Induction Assay for Estrogen Receptor (AID 2283382)
The source made the active and inactive calls. The calls were made as follows: active = hit-call score of the fitted dose curve at least 0.9, where 1 is the maximum; inconclusive = response in the unintended direction; inactive = score below 0.9.
Mark one answer only. Choices: YES (active), NO (inactive)

molecule	assigned category
CCCCCCCC/C=C\CCCCCCCC(=O)OCC(O)CO (configuration not stated)	NO
O=C1C=CC(=O)N1c1ccccc1	NO
CCCCOC(=O)C(C)O (configuration not stated)	YES
F[Si-2](F)(F)(F)(F)F	NO
CCc1cc(Cc2cc(CC)c(N)c(CC)c2)cc(CC)c1N	NO

Query: For this molecule, state the assay outcome: `CC(C)(C)c1cc(Cc2cc(C(C)(C)C)c(O)c(C(C)(C)C)c2)cc(C(C)(C)C)c1O`
Reply: NO

Query: For this molecule, state the assay outcome: `CCCCCCCCCCCCCC[P+](CCCC)(CCCC)CCCC`
Reply: YES

---

test: ATG_PPRE_CIS: Attagene CIS-FACTORIAL HepG2 Assay for human Peroxisome Proliferator-activated Response Element (PPRE) (AID 2282958); conditions: HepG2 PPRE cis-element reporter, Attagene transcription factor profiling; actives raise or lower the signal
Calls of active or inactive are those of the source. Rule for the calls: active = hit-call score of the fitted dose curve at least 0.9, where 1 is the maximum; inactive = score below 0.9.
Mark one answer only. Choices: active, inactive

Would you please look over these solved cases?
smiles	assigned category
O=c1[nH]cccc1O	inactive
C[Si](Cl)(Cl)CCC(F)(F)C(F)(F)C(F)(F)C(F)(F)C(F)(F)C(F)(F)F	inactive
O=C(O)C(F)(F)C(F)(F)C(F)(F)OC(F)(F)F	inactive
CCOC(=O)CCC(C)=O	inactive

Query: For this molecule, state the assay outcome: `O=S(=O)(O)c1ccc(Cl)cc1`
Reply: inactive

Query: For this molecule, state the assay outcome: `FC(F)(F)C(F)(F)C(F)(F)C(F)(F)C(F)(F)C(F)(F)C(F)(F)CCI`
Reply: inactive

Query: For this molecule, state the assay outcome: `CC(C)CC=C(C=O)c1ccccc1`
Reply: inactive

Query: For this molecule, state the assay outcome: `OC(O)C(F)(F)C(F)(F)F`
Reply: inactive

---

assay: ATG_AP_1_CIS: Attagene CIS-FACTORIAL HepG2 Assay for human Activator Protein 1 (AP-1) (AID 2282931); settings: HepG2 Attagene cis-factorial AP-1 reporter mRNA; actives raise or lower the signal
Calls of active or inactive are those of the source. The calls were made as follows: active = hit-call score of the fitted dose curve at least 0.9, where 1 is the maximum; inactive = score below 0.9.
Mark one answer only. Choices: y (active), n (inactive)

Would you please look over these solved cases?
molecule	assigned category
O=C(Cl)c1ccc(Cl)cc1Cl	n
Brc1nc2ccccc2s1	y
Nc1cc([N+](=O)[O-])cc(Cl)c1O	n
Brc1ccccn1	n

Query: For this molecule, state the assay outcome: OCC1CCCO1 (stereo not drawn)
Reply: n

Query: For this molecule, state the assay outcome: OCC(O)CC(F)(F)C(F)(F)C(F)(F)C(F)(F)C(F)(F)C(F)(F)C(F)(F)C(F)(F)F (stereo not drawn)
Reply: n

Query: For this molecule, state the assay outcome: `CC(=O)CCC(C)C`
Reply: n

Query: For this molecule, state the assay outcome: `Oc1ccc2c(c1)CCC2`
Reply: n

---

read-out: urokinase plasminogen activator (uPA), PLAU (gene 5328); assay: BSK_KF3CT_uPA: BioMAP Diversity Plus: KF3CT Assay for urokinase plasminogen activator (uPA) Biomarker Activity (AID 2283075); conditions: primary human keratinocytes with fibroblasts; actives raise or lower the signal
Activity calls are given as the source filed them. How the source made its calls: active means hit-call score of the fitted dose curve at least 0.9, where 1 is the maximum; inactive means score below 0.9.
Mark one answer only. Choices: active, inactive

Would you please look over these solved cases?
compound	assigned category
FC(F)(F)C(F)(F)C(F)(F)C(F)(F)C(F)(F)C(F)(F)CC[Si](Cl)(Cl)Cl	inactive
O=C(Cl)C(F)(F)C(F)(F)C(F)(F)C(F)(F)C(F)(F)C(F)(F)F	inactive
CCOC(C=C(C)CCC=C(C)C)OCC	active
O=C=Nc1cccc2c(N=C=O)cccc12	inactive
O=C(O)CCC(F)(F)C(F)(F)C(F)(F)F	inactive

Query: For this compound, state the assay outcome: `NCC(F)(F)C(F)(F)C(F)(F)C(F)(F)C(F)(F)C(F)(F)F`
Reply: inactive

Query: For this compound, state the assay outcome: `OCCCCC(F)(F)C(F)(F)C(F)(F)C(F)(F)F`
Reply: inactive

Query: For this compound, state the assay outcome: `CN(C(=O)C(F)(F)C(F)(F)C(F)(F)F)[Si](C)(C)C`
Reply: inactive

Query: For this compound, state the assay outcome: CC1=CC2C3C=CC(C3)C2C1C (configuration not stated)
Reply: inactive

Query: For this compound, state the assay outcome: `O=C(F)C1(F)C(F)(F)C(F)(F)C(F)(F)C(F)(F)C1(F)F`
Reply: inactive

Query: For this compound, state the assay outcome: `O=C(O)C(F)(F)C(F)(F)C(F)(F)OC(F)(F)F`
Reply: inactive

Query: For this compound, state the assay outcome: `FC(F)(F)C(F)(F)C(F)(F)C(F)(F)C(F)(F)C(F)(F)C(F)(F)CCI`
Reply: inactive

Query: For this compound, state the assay outcome: `O=C(O)CCC(F)(F)C(F)(F)C(F)(F)C(F)(F)C(F)(F)C(F)(F)C(F)(F)F`
Reply: inactive

Query: For this compound, state the assay outcome: `CCN(CC)c1ccc2c(c1)Oc1cc(N(CC)CC)ccc1C21OC(=O)c2ccccc21`
Reply: inactive

Query: For this compound, state the assay outcome: `NC(=O)C(F)(F)C(F)(F)C(F)(F)F`
Reply: inactive

Query: For this compound, state the assay outcome: `Cc1ccc(S(=O)(=O)C(I)I)cc1`
Reply: active

Query: For this compound, state the assay outcome: `O=C(O)C(F)(F)C(F)(F)C(F)(F)C(=O)O`
Reply: inactive

---

read-out: Interleukin-1 alpha (IL1a), IL1A (gene 3552); assay: BSK_LPS_IL1a: BioMAP Diversity Plus: LPS Assay for Interleukin-1 alpha (IL1a) Biomarker Activity (AID 2283080); conditions: primary human HUVEC with PBMC; actives raise or lower the signal
Calls of active or inactive are those of the source. Rule for the calls: active = hit-call score of the fitted dose curve at least 0.9, where 1 is the maximum; inactive = score below 0.9.
Mark one answer only. Choices: yes = active, no = inactive

Would you please look over these solved cases?
compound	assigned category
NC(=O)C(F)(F)C(F)(F)C(F)(F)C(F)(F)C(F)(F)C(F)(F)C(F)(F)F	no
O=C(F)C1(F)C(F)(F)C(F)(F)C(F)(F)C(F)(F)C1(F)F	no
CCOC(C=C(C)CCC=C(C)C)OCC	yes
C=CC(=O)OCC(F)(F)C(F)(F)C(F)(F)C(F)(F)C(F)(F)C(F)(F)C(F)(F)C(F)F	no
CCN(CC)c1ccc2c(c1)Oc1cc(N(CC)CC)ccc1C21OC(=O)c2ccccc21	no

Query: For this compound, state the assay outcome: `O=C(O)CCC(F)(F)C(F)(F)C(F)(F)C(F)(F)C(F)(F)C(F)(F)C(F)(F)F`
Reply: no

Query: For this compound, state the assay outcome: `NCC(F)(F)C(F)(F)C(F)(F)C(F)(F)C(F)(F)C(F)(F)F`
Reply: no

Query: For this compound, state the assay outcome: `NC(=O)C(F)(F)C(F)(F)C(F)(F)F`
Reply: no

Query: For this compound, state the assay outcome: `O=S(=O)(O)CCC(F)(F)C(F)(F)C(F)(F)C(F)(F)F`
Reply: no

Query: For this compound, state the assay outcome: `NCC(F)(F)C(F)(F)C(F)(F)C(F)(F)C(F)(F)C(F)(F)C(F)(F)C(F)(F)F`
Reply: no
